From: patent US20060079453A1

# System Name: HLA-DR DRB1*0701 (DR7) (Homo sapiens, UniProt P01903+P01911, A100R/A102G/A103Q/D57E/D86V/E43K/F76Y/K127E/L162R/M171V/P40G/Q125H/Q99D/R33Q/R42Y/R54Q/S133A/S66F/T210M/V115G/Y107V/Y59L/Y89S)
# Assay Comment: biochemical
# Format: binding
# Condition Parameters: DRB1 *0701
Endpoint: IC50 (nM)
One number for each entry, in nM.

{"Smiles Repr": "CC[C@H](C)[C@H](NC(=O)[C@@H](NC(=O)[C@@H]1CCCN1C(=O)[C@H](Cc1ccccc1)NC(=O)[C@H](Cc1ccccc1)NC(=O)[C@H](Cc1ccc(O)cc1)NC(=O)[C@H](CCC(N)=O)NC(=O)[C@H](Cc1c[nH]c2ccccc12)NC(=O)[C@H](CC(N)=O)NC(=O)CNC(=O)[C@@H](N)C(C)C)C(C)C)C(=O)N[C@@H](Cc1ccccc1)C(=O)N[C@@H](CO)C(=O)N[C@@H](CCCCN)C(=O)N[C@@H](C)C(=O)O", "IC50 (nM)": 100}
{"Smiles Repr": "CC[C@H](C)[C@H](NC(=O)[C@H](CO)NC(=O)[C@@H](NC(=O)CN)C(C)C)C(=O)N[C@@H](Cc1c[nH]c2ccccc12)C(=O)N[C@@H](CC(N)=O)C(=O)N1CCC[C@H]1C(=O)N[C@H](C(=O)N[C@@H](CC(C)C)C(=O)N[C@@H](CC(C)C)C(=O)N[C@@H](Cc1c[nH]c2ccccc12)C(=O)N[C@@H](CCC(N)=O)C(=O)N1CCC[C@H]1C(=O)N[C@H](C(=O)N1CCC[C@H]1C(=O)O)[C@@H](C)CC)[C@@H](C)CC", "IC50 (nM)": 4990}

// recorded IC50 for "CC[C@H](C)[C@H](NC(=O)[C@H](Cc1c[nH]c2ccccc12)NC(=O)[C@@H](NC(=O)[C@@H](N)C(C)C)[C@@H](C)O)C(=O)NCC(=O)N[C@@H](C)C(=O)N[C@@H](C)C(=O)N1CCC[C@H]1C(=O)N[C@@H](CC(C)C)C(=O)N[C@H](C(=O)N[C@@H](CC(C)C)C(=O)N[C@@H](CO)C(=O)N[C@@H](CCCNC(=N)N)C(=O)N[C@H](C(=O)N[C@H](C(=O)O)C(C)C)[C@@H](C)CC)[C@@H](C)CC" : 195
